// AC50 collected for Neuronal acetylcholine receptor subunit alpha-4 (Homo sapiens, UniProt P43681)

Compound: CCCCOC(=O)C(=O)Nc1cccc(-c2nnn[nH]2)c1
AC50: > 30 µM
//
Compound: Cn1cnc2c(F)c(Nc3ccc(Br)cc3F)c(C(=O)NOCCO)cc21
AC50: > 30 µM
//
Compound: Cc1ccc(S(=O)(=O)NC(=O)N[C@H]2[C@H]3CC[C@@](C)([C@H]2O)C3(C)C)cc1 [GLIBORNURIDE]
AC50: > 30 µM
//
Compound: CC(=O)[C@@]1(O)CC[C@H]2[C@@H]3C[C@H](C)C4=CC(=O)C=C[C@]4(C)[C@@]3(F)[C@@H](O)C[C@@]21C
AC50: > 10 µM
//
Compound: CCOc1ccccc1OCCN[C@H](C)Cc1ccc(OC)c(S(N)(=O)=O)c1
AC50: > 10 µM
//
Compound: OCC(CO)N[C@H]1C[C@](O)(CO)[C@@H](O)[C@H](O)[C@H]1O
AC50: > 30 µM
//
Compound: Clc1ccc(COC(Cn2ccnc2)c2ccc(Cl)cc2Cl)c(Cl)c1 (stereo not drawn)
AC50: > 10 µM
//
Compound: CCN(C(C)=O)c1cccc(-c2ccnc3c(C#N)cnn23)c1
AC50: > 30 µM
